molecular target: T1, recombinant LILRB1 (human, UniProt Q8NHL6 24-461); test: BLI (Octet RED96), antibody on biosensor, recombinant LILRB1 in solution;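 note: Background-subtracted sensorgrams fitted with a one-to-one binding model, KD taken as koff over kon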
T1 construct: LILRB1-Fc proteins were also made; also called LILRB1 recombinant proteins
T1 sequence (Q8NHL6 24-461 limits assumed): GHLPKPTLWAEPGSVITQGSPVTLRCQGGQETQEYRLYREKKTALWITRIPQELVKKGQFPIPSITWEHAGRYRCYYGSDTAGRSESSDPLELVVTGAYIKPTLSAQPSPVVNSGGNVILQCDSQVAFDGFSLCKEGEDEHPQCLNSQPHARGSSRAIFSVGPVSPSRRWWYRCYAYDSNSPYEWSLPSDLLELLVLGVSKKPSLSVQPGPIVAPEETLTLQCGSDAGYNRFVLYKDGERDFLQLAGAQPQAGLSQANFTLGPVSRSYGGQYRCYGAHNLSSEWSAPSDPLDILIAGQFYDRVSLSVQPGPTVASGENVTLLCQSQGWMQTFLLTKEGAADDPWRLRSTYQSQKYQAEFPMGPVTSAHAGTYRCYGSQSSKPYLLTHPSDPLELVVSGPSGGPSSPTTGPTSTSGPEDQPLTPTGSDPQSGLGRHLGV
Parameter threshold = 0.0002 s⁻¹. Response is true (1) when koff meets or exceeds it, else false (0).

Record B1-#27 (antibody, V domains shown, recombinant rabbit IgG) VH: EQSVKESGGGLVQPEGSLTLTCTVSGFSFSGSYWICWVRQAPGKGLEWIACIYGDSIATYYPNWAKGRFTISKTSSTTVTLQMASLTGADTATYFCARDRNGGSGAYGWDLWGPGTLVTISS VL: ELDLTQTPASVSEPVGGTVTITCQASQSISSYLSWYQQTPGQPPKLLIYKASTLASGVPSRFKGSGSGTEFTLTISDLECADAATYYCQSYYYISATVDNTFGGGTEVEIK ; criterion: koff no lower than 0.0002 s⁻¹. Met?
false (0)

Record B1-#41-1 (antibody, V domains shown, recombinant rabbit IgG) VH: QSVKESGGDLVKPGASLTLTCTASGFSFSSSYWICWVRQAPGKGLEWIACIYAGSSGSTYYASWAKGRFTISKTSSTTVTLQMTSLTAADTATYFCARSTSGSYGAGLGLWGPGTLVTISS VL: ELDMTQTASPVSGAVGGTVTIKCQASQNIYNNIGWYQQKPGQPPNLLIYGPSYLASGVPSRFKGSRSGTEYTLTISDLECADAATYYCQSDDWMSISPDIVFGGGTEVEIK ; criterion: koff no lower than 0.0002 s⁻¹. Met?
true (1)

Record B1-#209 (antibody, V domains shown, recombinant rabbit IgG) VH: SQSVEESGGDLVKPGGTLTLTCTASRIDLNNYYYISWVRQAPGKGLEWIGVVATDSSVTWYASWAKGQFTISKTSSTTVTLQMTSLTAADTATYFCARGSGAATNGVWWVMGDGMDLWGPGTLVTVSS VL: ELVMTQTPASVSEPVGGTVTIKCQASQSISSYLSWYQQKPGQPPKRLIYKASTLASGVPSRFKGSGSGTEFTLTISGVQCADAATYYCQNNYHSGSSNGGGFAFGGGTEVEIK ; criterion: koff no lower than 0.0002 s⁻¹. Met?
true (1)

***
Record B1-#72-1 (antibody, V domains shown, recombinant rabbit IgG) VH: QSVKESGGGLVQPEGSLALTCKASGIDLSNYWYMCWVRQAPGKGLEWIGCVATDSSRTHYATWAKGRFTVSKTSSTTVTLQMTSLTAADTATYFCARGSGASTNGVWWVMGDGMDLWGPGTLVTISS VL: ELVMTQTPSSVSAAVGGTVTIKCQASPSISTYLSWYQQKPGQPPKRLINRASTLASGVPPRFKGSGAGTQFTLTISDLECADAATYYCQNNYHSGSSNGGGVAFGGGTEVEIK ; criterion: koff no lower than 0.0002 s⁻¹. Met?
true (1)

Record B1-#22 (antibody, V domains shown, recombinant rabbit IgG) VH: EQSLEESGGGLVKPGASLTLTCKASGFDFSSNDYMCWVRQAPGKGLEWIGCIYGGDGHTYYATWAKGRFTISKASSTTVTLQMTSLTAADTASYFCARGYSYGDTGYADAILTLDLWGPGTLVTVSS VL: ELDLTQTPASVEAAVGGTVTIKCQASQTIGSYLSWYQQKPGQRPKLLIYEASKLASGVPSWFKGSGSGTEFTLTISDLECADAATYYCQSNYYRAGGNYGGAFGGGTEVEIK ; criterion: koff no lower than 0.0002 s⁻¹. Met?
false (0)
